assay name: Antiproliferative activity against human MP41 cells assessed as inhibition of cell growth after 72 hrs by CCK8 assay
Type: functional, cell-based
condition label: MP41, 72 h
pIC50: −log10 of the molar value.
Kindly state pIC50 for each of the entries shown.

(Q) I would be grateful if you could share the reported pIC50 for C[C@@H]1c2nc(-c3ccccc3)cn2CCN1C(=O)[C@@H](N)CS .
(A) < 4.00

(Q) Param item: NC(=O)C[C@H](N)C(=O)N1CCn2cc(-c3ccccc3)nc2[C@@H]1CC1CCCCC1
(A) < 4.00

(Q) Now consider CC(C)[C@H]1c2nc(-c3ccccc3)cn2CCN1C(=O)[C@@H](N)CCCCN .
(A) < 4.00

(Q) And for CC[C@H](C)C(=O)N1CCn2cc(-c3ccccc3)nc2[C@H]1C(C)C ?
(A) < 4.00

(Q) Next up: O=C(CCS)N1CCn2cc(-c3ccccc3)nc2[C@@H]1CC1CCCCC1
(A) < 4.00

(Q) Record: N[C@@H](CS)C(=O)N1CCn2cc(-c3ccccc3)nc2[C@H]1Cc1ccccc1
(A) 4.70

(Q) Try this molecule next: CC[C@@H](C)[C@H](N)C(=O)N1CCn2cc(-c3ccccc3)nc2[C@H]1CC(C)C
(A) < 4.00

(Q) And for CN[C@@H](CS)C(=O)N1CCn2cc(-c3ccccc3)nc2[C@H]1CC(C)C ?
(A) 4.23

(Q) Param item: CCN(CC)[C@@H](CS)C(=O)N1CCn2cc(-c3ccccc3)nc2[C@@H]1CC1CCCCC1
(A) < 4.00

(Q) Entry to check: CC(C)C(=O)N1CCn2cc(-c3ccccc3)nc2[C@@H]1CC1CCCCC1
(A) < 4.00

(Q) Try this molecule next: CC(C)C(=O)N1CCn2cc(-c3ccccc3)nc2[C@H]1C(C)C
(A) < 4.00

(Q) // repeat for C[C@H]1c2nc(-c3ccccc3)cn2CCN1C(=O)[C@@H](N)CS and report
(A) < 4.00

(Q) Also check CC(C)C(=O)N1CCn2cc(-c3ccccc3)nc2[C@@H]1C(C)C
(A) < 4.00

(Q) Could you do the same for C[C@@H](CS)C(=O)N1CCn2cc(-c3ccccc3)nc2[C@@H]1CC1CCCCC1 , please?
(A) < 4.00

(Q) Same read-out for C[C@@H](O)[C@H](N)C(=O)N1CCn2cc(-c3ccccc3)nc2[C@@H]1CC1CCCCC1 ?
(A) < 4.00

(Q) What do you have for N[C@@H](Cc1c[nH]c2ccccc12)C(=O)N1CCn2cc(-c3ccccc3)nc2[C@@H]1CC1CCCCC1 ?
(A) 4.81

(Q) How about this molecule: CC[C@@H](C)[C@H](N)C(=O)N1CCn2cc(-c3ccccc3)nc2[C@@H]1CC1CCCCC1
(A) 4.61

(Q) Check CC(C)[C@@H]1c2nc(-c3ccccc3)cn2CCN1C(=O)[C@@H](N)CO too.
(A) < 4.00

(Q) Another molecule to look at: NCCCC[C@H](N)C(=O)N1CCn2cc(-c3ccccc3)nc2[C@@H]1CC1CCCCC1
(A) < 4.00

(Q) What would you report for CC(C)[C@@H]1c2nc(-c3ccccc3)cn2CCN1C(=O)[C@@H](N)CS ?
(A) < 4.00

----------
assay name: MRT(0 to t) in ICR mouse at 30 mg/kg, po measured upto 24 hrs by LC-MS/MS analysis
Assay type: ADME, organism-based
condition label: in vivo
parameter: MRT last at 24 h
Show the value, then the unit it is measured in.

(Q) Field request: MRT last at 24 h | item: CC[C@@H](C)[C@H](N)C(=O)N1CCn2cc(-c3ccccc3)nc2[C@@H]1CC1CCCCC1
(A) 1.88 h
